Please go through the items and note down their Ki.
# system-name: human recombinant GR (Homo sapiens, UniProt P04150)
# Construct: purchased PanVera P2812
# Sequence (P04150 whole entry): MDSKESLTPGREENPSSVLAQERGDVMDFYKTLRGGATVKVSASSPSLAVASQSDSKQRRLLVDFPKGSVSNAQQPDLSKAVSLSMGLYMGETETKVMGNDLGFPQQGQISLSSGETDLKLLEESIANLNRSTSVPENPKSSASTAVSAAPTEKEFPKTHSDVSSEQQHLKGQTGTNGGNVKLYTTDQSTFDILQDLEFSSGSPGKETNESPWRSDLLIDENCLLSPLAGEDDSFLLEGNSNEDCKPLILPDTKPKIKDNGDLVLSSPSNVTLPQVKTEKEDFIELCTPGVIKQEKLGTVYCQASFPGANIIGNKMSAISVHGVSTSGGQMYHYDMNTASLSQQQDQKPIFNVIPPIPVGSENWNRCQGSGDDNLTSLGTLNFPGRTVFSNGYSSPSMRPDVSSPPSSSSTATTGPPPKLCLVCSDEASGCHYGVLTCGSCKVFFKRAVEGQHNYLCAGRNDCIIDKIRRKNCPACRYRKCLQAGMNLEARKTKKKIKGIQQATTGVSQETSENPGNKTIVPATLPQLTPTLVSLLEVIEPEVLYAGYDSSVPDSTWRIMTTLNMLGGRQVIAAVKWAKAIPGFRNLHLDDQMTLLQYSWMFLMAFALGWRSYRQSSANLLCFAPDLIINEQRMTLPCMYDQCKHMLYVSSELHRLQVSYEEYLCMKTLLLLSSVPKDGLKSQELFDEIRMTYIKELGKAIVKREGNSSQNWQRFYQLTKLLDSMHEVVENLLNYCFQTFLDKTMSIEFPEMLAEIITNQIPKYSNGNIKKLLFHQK
# test: Human glucocorticoid receptor (GR) fluorescence polarisation (FP) binding assay
# experimental-context: human recombinant GR, fluorescence polarisation binding assay; read-out: GR binding

Please look at this compound and report its Ki: Cc1csc(C(=O)[C@]23Cc4cnn(-c5ccc(F)cc5)c4C=C2CCN(S(=O)(=O)c2cccc(C(F)(F)F)c2)C3)n1 [Example 12M]
0.5 to 1 nM

Please look at this compound and report its Ki: O=C(c1ccccn1)[C@]12Cc3cnn(-c4ccc(F)cc4)c3C=C1CCN(S(=O)(=O)c1cccc(OC(F)(F)F)c1)C2 [Example 11I]
< 0.5 nM

Please look at this compound and report its Ki: Cc1cnc(C(=O)[C@]23Cc4cnn(-c5ccc(F)cc5)c4C=C2CCN(S(=O)(=O)c2ccc(Cl)c(F)c2)C3)s1 [Example 12R]
0.5 to 1 nM

Please look at this compound and report its Ki: O=C(c1ccccn1)[C@]12Cc3cnn(-c4ccc(F)cc4)c3C=C1CCN(S(=O)(=O)c1cc(F)c(F)c(F)c1)C2 [Example 11Q]
< 0.5 nM

Please look at this compound and report its Ki: O=C(c1ccccn1)[C@]12Cc3cnn(-c4ccc(F)cc4)c3C=C1CCN(S(=O)(=O)c1cncc(F)c1)C2
< 0.5 nM

Please look at this compound and report its Ki: COc1ccc(S(=O)(=O)N2CCC3=Cc4c(cnn4-c4ccc(F)cc4)C[C@]3(C(=O)c3ccccn3)C2)cc1F [Example 11D]
< 0.5 nM

Please look at this compound and report its Ki: O=C(c1ccccn1)[C@]12Cc3cnn(-c4ccc(F)cc4)c3C=C1CCN(S(=O)(=O)c1ccc(N3CCCC3)cc1)C2
< 0.5 nM

Please look at this compound and report its Ki: COCc1cccc(S(=O)(=O)N2CCC3=Cc4c(cnn4-c4ccc(F)cc4)C[C@]3(C(=O)c3ccccn3)C2)c1 [Example 11AA]
< 0.5 nM

Please look at this compound and report its Ki: Cc1cnc(C(=O)[C@]23Cc4cnn(-c5ccc(F)cc5)c4C=C2CCN(S(=O)(=O)c2ccnn2C)C3)s1 [Example 12V]
0.5 to 1 nM

Please look at this compound and report its Ki: Cn1ccc(S(=O)(=O)N2CCC3=Cc4c(cnn4-c4ccc(C(F)(F)F)cc4)C[C@]3(C(=O)c3ccccn3)C2)n1 [Example 11BT]
> 1 nM

Please look at this compound and report its Ki: O=C(c1cscn1)[C@]12Cc3cnn(-c4ccc(F)cc4)c3C=C1CCN(S(=O)(=O)c1ccc(Cl)c(Cl)c1)C2
< 0.5 nM

Please look at this compound and report its Ki: COc1ccnc(C(=O)[C@]23Cc4cnn(-c5ccc(F)cc5)c4C=C2CCN(S(=O)(=O)c2cc(F)cc(F)c2)C3)c1
< 0.5 nM

Please look at this compound and report its Ki: O=C(c1ccccn1)[C@]12Cc3cnn(-c4ccc(F)cc4)c3C=C1CCN(S(=O)(=O)C1CCCCC1)C2
> 1 nM

Please look at this compound and report its Ki: Cn1ncc(S(=O)(=O)N2CCC3=Cc4c(cnn4-c4ccc(F)cc4)C[C@]3(C(=O)c3cc(C(F)(F)F)ccn3)C2)n1 [Example 11CE]
< 0.5 nM

* * *

# Tested on: induction of TAT by dexamethasone in HepG2 cells
# test: HepG2 tyrosine aminotransferase (TAT) assay
# Assay type: cell-based, human
# experimental-context: HepG2 cells, challenge of 100 nM dexamethasone; Ki from IC50 by Cheng and Prusoff equation
pKi: −log10 of the molar value.
parameter: pKi

Please look at this compound and report its pKi: Cc1ccc(S(=O)(=O)N2CCC3=Cc4c(cnn4-c4ccc(F)cc4)C[C@]3(C(=O)c3nccn3C)C2)cc1
7.00 to 7.70

Please look at this compound and report its pKi: Cc1ccnc(C(=O)[C@]23Cc4cnn(-c5ccc(F)cc5)c4C=C2CCN(S(=O)(=O)c2cc(F)c(F)c(F)c2)C3)c1 [Example 11X]
> 7.70

Please look at this compound and report its pKi: O=C(c1nccs1)[C@]12Cc3cnn(-c4ccc(F)cc4)c3C=C1CCN(S(=O)(=O)c1cccc(C(F)(F)F)c1)C2
> 7.70

Please look at this compound and report its pKi: O=C(c1ccccn1)[C@]12Cc3cnn(-c4ccc(F)cc4)c3C=C1CCN(S(=O)(=O)c1cccc(C(F)(F)F)n1)C2 [Example 11AD]
> 7.70

Please look at this compound and report its pKi: Cc1ccnc(C(=O)[C@]23Cc4cnn(-c5ccc(F)cc5)c4C=C2CCN(S(=O)(=O)c2ccc(C(F)(F)F)c(F)c2)C3)c1 [Example 11AS]
> 7.70

Please look at this compound and report its pKi: COc1c(F)cc(S(=O)(=O)N2CCC3=Cc4c(cnn4-c4ccc(F)cc4)C[C@]3(C(=O)c3ccccn3)C2)cc1F [Example 15D]
> 7.70

Please look at this compound and report its pKi: O=C(c1ccccn1)[C@]12Cc3cnn(-c4ccc(F)cc4)c3C=C1CCN(S(=O)(=O)c1ccc(Cl)c(C(F)(F)F)c1)C2 [Example 11BF]
7.00 to 7.70

Please look at this compound and report its pKi: CCCn1cc(S(=O)(=O)N2CCC3=Cc4c(cnn4-c4ccc(F)cc4)C[C@]3(C(=O)c3nccs3)C2)cn1 [Example 12Y]
> 7.70

Please look at this compound and report its pKi: Cc1ccnc(C(=O)[C@]23Cc4cnn(-c5ccc(F)cc5)c4C=C2CCN(S(=O)(=O)c2cnn(C)c2C)C3)c1 [Example 11AI]
> 7.70

Please look at this compound and report its pKi: O=C(c1ccccn1)[C@]12Cc3cnn(-c4ccc(F)cc4)c3C=C1CCN(S(=O)(=O)c1ccc(F)c(F)c1F)C2 [Example 11AC]
> 7.70

Please look at this compound and report its pKi: CCn1nccc1S(=O)(=O)N1CCC2=Cc3c(cnn3-c3ccc(F)cc3)C[C@]2(C(=O)c2nccs2)C1 [Example 12W]
≤ 7.00

Please look at this compound and report its pKi: Cc1n[nH]c(C)c1S(=O)(=O)N1CCC2=Cc3c(cnn3-c3ccc(F)cc3)C[C@]2(C(=O)c2cc(C(F)(F)F)ccn2)C1
7.00 to 7.70

Please look at this compound and report its pKi: COc1ccc(S(=O)(=O)N2CCC3=Cc4c(cnn4-c4ccc(F)cc4)C[C@]3(C(=O)c3ccccn3)C2)cn1
> 7.70

* * *

Please go through the items and note down their Ki.
# System: induction of TAT by dexamethasone in HepG2 cells
# test: HepG2 tyrosine aminotransferase (TAT) assay
# Assay type: cell-based, human
# experimental-context: HepG2 cells, challenge of 100 nM dexamethasone; Ki from IC50 by Cheng and Prusoff equation

State recorded Ki with induction of TAT by dexamethasone in HepG2 cells, entry CCCn1nncc1S(=O)(=O)N1CCC2=Cc3c(cnn3-c3ccc(F)cc3)C[C@]2(C(=O)c2cscn2)C1 [Example 11CR] , no comment.
0.02 to 0.1 µM

State recorded Ki with induction of TAT by dexamethasone in HepG2 cells, entry O=C(c1ccccn1)[C@]12Cc3cnn(-c4ccc(F)cc4)c3C=C1CCN(S(=O)(=O)c1cc(F)cc(F)c1)C2 [Example 11J] , no comment.
< 0.02 µM

State recorded Ki with induction of TAT by dexamethasone in HepG2 cells, entry COc1cccc(S(=O)(=O)N2CCC3=Cc4c(cnn4-c4ccc(F)cc4)C[C@]3(C(=O)c3nccs3)C2)c1 [Example 12B] , no comment.
0.02 to 0.1 µM

State recorded Ki with induction of TAT by dexamethasone in HepG2 cells, entry O=C(c1nccs1)[C@]12Cc3cnn(-c4ccc(F)cc4)c3C=C1CCN(S(=O)(=O)c1ccc(C(F)(F)F)c(F)c1)C2 [Example 12K] , no comment.
0.02 to 0.1 µM

State recorded Ki with induction of TAT by dexamethasone in HepG2 cells, entry Cc1ccnc(C(=O)[C@]23Cc4cnn(-c5ccc(F)cc5)c4C=C2CCN(S(=O)(=O)c2cccc(C(F)(F)F)c2)C3)c1 [Example 11AG] , no comment.
< 0.02 µM

State recorded Ki with induction of TAT by dexamethasone in HepG2 cells, entry Cn1nccc1S(=O)(=O)N1CCC2=Cc3c(cnn3-c3ccc(F)cc3)C[C@]2(C(=O)c2cc(C(F)(F)F)ccn2)C1 [Example 11BM] , no comment.
< 0.02 µM

State recorded Ki with induction of TAT by dexamethasone in HepG2 cells, entry O=C(c1nccs1)[C@]12Cc3cnn(-c4ccc(F)cc4)c3C=C1CCN(S(=O)(=O)c1cccc(N3CCCC3)c1)C2 , no comment.
≥ 0.1 µM

* * *

Please go through the items and note down their Ki.
# Test system: induction of TAT by dexamethasone in HepG2 cells
# test: HepG2 tyrosine aminotransferase (TAT) assay
# Format: cell-based, human
# experimental-context: HepG2 cells, challenge of 100 nM dexamethasone; Ki from IC50 by Cheng and Prusoff equation

State recorded Ki with induction of TAT by dexamethasone in HepG2 cells, entry O=C(c1ccccn1)[C@]12Cc3cnn(-c4ccc(F)cc4)c3C=C1CCN(S(=O)(=O)c1cncc(F)c1)C2 , no comment.
20 to 100 nM

State recorded Ki with induction of TAT by dexamethasone in HepG2 cells, entry O=C(c1ccccn1)[C@]12Cc3cnn(-c4ccc(F)cc4)c3C=C1CCN(S(=O)(=O)c1ccc(N3CCOCC3)nc1)C2 , no comment.
20 to 100 nM

State recorded Ki with induction of TAT by dexamethasone in HepG2 cells, entry CCn1cc(S(=O)(=O)N2CCC3=Cc4c(cnn4-c4ccc(F)cc4)C[C@]3(C(=O)c3cc(C(F)(F)F)ccn3)C2)nn1 [Example 11CM] , no comment.
< 20 nM

State recorded Ki with induction of TAT by dexamethasone in HepG2 cells, entry Cn1ccc(S(=O)(=O)N2CCC3=Cc4c(cnn4-c4ccc(F)cc4)C[C@]3(C(=O)c3cc(C(F)(F)F)ccn3)C2)n1 [Example 11BI] , no comment.
< 20 nM

State recorded Ki with induction of TAT by dexamethasone in HepG2 cells, entry CCn1cnc(S(=O)(=O)N2CCC3=Cc4c(cnn4-c4ccc(F)cc4)C[C@]3(C(=O)c3cc(C(F)(F)F)ccn3)C2)c1 [Example 11BY] , no comment.
< 20 nM

State recorded Ki with induction of TAT by dexamethasone in HepG2 cells, entry Cc1ccc(S(=O)(=O)N2CCC3=Cc4c(cnn4-c4ccc(F)cc4)C[C@]3(C(=O)c3nccs3)C2)cc1F [Example 12C] , no comment.
20 to 100 nM

State recorded Ki with induction of TAT by dexamethasone in HepG2 cells, entry COc1ccc(S(=O)(=O)N2CCC3=Cc4c(cnn4-c4ccc(F)cc4)C[C@]3(C(=O)c3ccccn3)C2)cc1 , no comment.
< 20 nM

State recorded Ki with induction of TAT by dexamethasone in HepG2 cells, entry COc1ccc(C(=O)[C@]23Cc4cnn(-c5ccc(F)cc5)c4C=C2CCN(S(=O)(=O)c2ccc(C(F)(F)F)cc2)C3)nc1 , no comment.
< 20 nM

State recorded Ki with induction of TAT by dexamethasone in HepG2 cells, entry Cc1ccc(S(=O)(=O)N2CCC3=Cc4c(cnn4-c4ccc(F)cc4)C[C@]3(C(=O)c3cscn3)C2)cc1 [Example 11K] , no comment.
< 20 nM

State recorded Ki with induction of TAT by dexamethasone in HepG2 cells, entry CS(=O)(=O)c1cccc(S(=O)(=O)N2CCC3=Cc4c(cnn4-c4ccc(F)cc4)C[C@]3(C(=O)c3ccccn3)C2)c1 [Example 11Y] , no comment.
20 to 100 nM

State recorded Ki with induction of TAT by dexamethasone in HepG2 cells, entry CCn1cc(S(=O)(=O)N2CCC3=Cc4c(cnn4-c4ccc(F)cc4)C[C@]3(C(=O)c3cc(C(F)(F)F)ccn3)C2)cn1 , no comment.
< 20 nM

State recorded Ki with induction of TAT by dexamethasone in HepG2 cells, entry Cc1ccnc(C(=O)[C@]23Cc4cnn(-c5ccc(F)cc5)c4C=C2CCN(S(=O)(=O)c2cn(C)nc2C)C3)c1 [Example 11AQ] , no comment.
20 to 100 nM

State recorded Ki with induction of TAT by dexamethasone in HepG2 cells, entry Cc1ccccc1S(=O)(=O)N1CCC2=Cc3c(cnn3-c3ccc(F)cc3)C[C@]2(C(=O)c2ccccn2)C1 , no comment.
< 20 nM
